Test system: B. vinsonii
assay-overview: MIC assay in liquid culture media (OD600)
Assay type: cell-based, B. vinsonii subsp. berkhoffii
condition-context: Grace's insect media, read-out: MIC
readout-type: MIC

Problem: Return the recorded MIC value; entry: CC[C@H]1OC(=O)[C@H](C)[C@@H](O[C@H]2C[C@@](C)(OC)[C@@H](O)[C@H](C)O2)[C@H](C)[C@@H](O[C@@H]2O[C@H](C)C[C@H](N(C)C)[C@H]2O)[C@](C)(O)C[C@@H](C)CN(C)[C@H](C)[C@@H](O)[C@]1(C)O
Result: 0.1 to 0.3 µg/mL

Problem: Report MIC for CO/N=C(\C(=O)N[C@@H]1C(=O)N2C(C(=O)O)=C(CSc3nc(=O)c(=O)[nH]n3C)CS[C@H]12)c1csc(N)n1
Result: 0 to 0.01 µg/mL

Problem: Consider the compound C[C@H]1c2cccc(O)c2C(=O)C2=C(O)[C@]3(O)C(=O)C(C(N)=O)=C(O)[C@@H](N(C)C)[C@@H]3[C@@H](O)[C@@H]21 . State its measured MIC.
Result: 0.01 to 0.1 µg/mL

Problem: Give the measured MIC for CC1(C)S[C@@H]2[C@H](NC(=O)[C@H](NC(=O)N3CCNC3=O)c3ccccc3)C(=O)N2[C@H]1C(=O)O
Result: 0.001 to 0.005 µg/mL

Problem: Identify MIC associated with the compound CC1(C)S[C@@H]2[C@H](NC(=O)[C@H](N)c3ccccc3)C(=O)N2[C@H]1C(=O)O
Result: 0.01 to 0.02 µg/mL

Origin of values: patent US20240269158A1
